- Test system: NCI-H522 lung
- assay text: NCI tumour cell line growth inhibition, 48 h
measured quantity: GI50

compound | measured quantity | result
COc1ccc2c(c1)C(=O)c1c-2n(CCCCl)c(=O)c2cc(OC)c(OC)cc12 | GI50 | 9.12 µM
NS(=O)(=O)N(c1cc(C(F)(F)F)cc(C(F)(F)F)c1)C1CCN(Cc2ccc(F)cc2)CC1 | GI50 | 3.52 µM
CCCCNCC(O)c1cc2c(Cl)cc(Cl)cc2c2cc(C(F)(F)F)ccc12 (stereo not given) | GI50 | 1.75 µM
O=C1/C(=C/c2ccc(Cl)cc2)COc2ccc(O)cc21 | GI50 | 1.72 µM
Cn1cc(-c2nc3c(F)cc4[nH]ncc4c3c3c2CCCC3)c(C(F)(F)F)n1 | GI50 | 3.45 µM

---

Listing of entries alongside the reported TGI.
- Test system: SF-539 CNS
- assay text: NCI tumour cell line growth inhibition, 48 h

molecule | target of assay | u | value qualifier | TGI
CCOC(=O)c1nc2cc(C(F)(F)F)ccc2nc1Nc1cc(OC)c(OC)c(OC)c1 | SF-539 CNS | µM | > | 100
O=C(NCCc1[nH]nc2c1C(=O)C=C(Nc1ccccc1)C2=O)OCc1ccccc1 | SF-539 CNS | µM | > | 100
COCN1C(=O)C2CC(/C=C/C(N)=O)=CN2C(=O)c2ccccc21 (centres undefined) | SF-539 CNS | µM | > | 100
Cc1ccc(NC(=O)OCC(COc2ccc(Cl)cc2)OC(=O)Nc2ccc(C)cc2)cc1 (centres undefined) | SF-539 CNS | µM | = | 52.3
CCOC(=O)NC(Nc1ncn(C(NC(=O)OCC)(C(F)(F)F)C(F)(F)F)n1)(C(F)(F)F)C(F)(F)F | SF-539 CNS | µM | > | 100
O=C(/C=C/c1cccc(Br)c1)c1ccc(Cl)cc1 | SF-539 CNS | µM | = | 30.4
C=C1C(=O)O[C@H]2[C@H]1CC/C(COC(=O)CCCCCCC(=O)OC/C1=C/CC[C@@]3(C)O[C@H]3[C@H]3OC(=O)C(=C)[C@@H]3CC1)=C\CC[C@@]1(C)O[C@@H]21 | SF-539 CNS | µM | = | 7
NC(=O)SCC(=O)Nc1ccc2cccc3c2c1CC3 | SF-539 CNS | µM | = | 34.6

---

Listing of entries alongside the reported GI50.
- System: PC-3 prostate
- assay text: NCI tumour cell line growth inhibition, 48 h

compound | target of assay | GI50
COc1cc(/C=N/Nc2ncnc3[nH]ncc23)ccc1O | PC-3 prostate | > 20.6 µM
COc1ccc(C2CC(c3cc(Cl)c(C)cc3O)=NN2c2ccc(S(N)(=O)=O)cc2)cc1OC (stereo not drawn) | PC-3 prostate | 2.61 µM
COCC(=O)Oc1cc(-c2ccc(C)cc2C)c(OC(=O)COC)c(-c2ccc(C)cc2C)c1 | PC-3 prostate | 0.824 µM
CCN1CCC(Oc2c(C#N)ncc3[nH]c4ncccc4c23)CC1 | PC-3 prostate | 21 µM
COc1ccc(CCn2c3c(c4c(O)cccc42)C(=O)c2ccccc2-3)cc1OC | PC-3 prostate | 37.4 µM
CCCCCCCCc1cc[n+](CC(=O)c2ccc(Br)cc2)cc1 | PC-3 prostate | 1.51 µM
COC1=CC(c2ccc[nH]2)=N/C1=C\c1[nH]c(C)c(C(=O)CCCCC(=O)NCc2ccccc2)c1C | PC-3 prostate | 1.57 µM
CCCC(c1nnnn1C1CCCCC1)N1CCN(C(=O)c2ccco2)CC1 (stereo not drawn) | PC-3 prostate | > 100 µM

---

Listing of entries alongside the reported log10 of TGI.
- Tested on: OVCAR-3 ovarian
- assay text: NCI tumour cell line growth inhibition, 48 h
measured quantity: log10 of TGI (log10 of the value in µM)

compound | measured quantity | numeric value
COc1ccc(Nc2nccc(Nc3ccc4[nH]ncc4c3)n2)cc1 | log10 of TGI | 1.03
CCOc1nc(OCC)nc(-c2cccn2-c2ccccc2)n1 | log10 of TGI | 1.84
c1ccc(-c2c(-c3ccccc3)[n+](Cc3ccc4ccccc4c3)c(-c3cccc4ccccc34)n2Cc2ccc3ccccc3c2)cc1 | log10 of TGI | 0.11
COC1=CC(c2ccc[nH]2)=N/C1=C\c1[nH]c(C)c(C(=O)CCCCC(=O)NCc2ccccc2)c1C | log10 of TGI | 0.46
O=C(N=Nc1c(O)[nH]c2c(Cl)cc(Cl)cc12)c1ccccc1O | log10 of TGI | 1.40
CC(C)(C)c1ccc(C(=O)Nc2sc3c(c2C#N)CCC(=O)C3)cc1 | log10 of TGI | 0.21
COc1ccc(C2CC(c3cc(Cl)c(C)cc3O)=NN2c2ccc(S(N)(=O)=O)cc2)cc1OC (stereo unspecified) | log10 of TGI | 0.99
CCCc1c(Cl)nc(Cl)nc1Cl | log10 of TGI | 0.74
COC(=O)CCCC(=O)NC1=C(Nc2ccc(OC)cc2)C(=O)c2ccccc2C1=O | log10 of TGI | 1.50
NC(N)=N/N=C(/CC1OC(=O)c2ccccc21)c1ccc2ccccc2c1 (stereo unspecified) | log10 of TGI | 1.58

---

- Test system: UACC-257 melanoma
- assay text: NCI tumour cell line growth inhibition, 48 h
Listing of entries alongside the reported log10 TGI.
measured quantity: log10 TGI (log10 of the value in µM)

compound smiles | measured quantity | numeric value
COc1ccc(=[O+]C)c2nssc1-2 | log10 TGI | 1.85
O=C(/C=C/c1cccc(Br)c1)c1ccc(Cl)cc1 | log10 TGI | 1.51
CN(C)CCn1nc2c3c(c(C(=O)NCCCN(C)CCCNC(=O)c4ccc5c6c(nn5CCN(C)C)-c5ccccc5Nc46)ccc31)Nc1ccccc1-2 | log10 TGI | 0.04
COCC(=O)Oc1cc(-c2ccc(C)cc2C)c(OC(=O)COC)c(-c2ccc(C)cc2C)c1 | log10 TGI | 1.56
CC(=O)c1sc2c(c1OC(=O)c1ccc(Cl)cc1Cl)c(=O)n(-c1ccccc1)c(=S)n2-c1ccccc1 | log10 TGI | 1.48
Nc1cc2c([nH]c[n+]2CC#CCCl)c(SCC#CCCl)n1 | log10 TGI | 0.44

---

- Tested on: M14 melanoma
- assay text: NCI tumour cell line growth inhibition, 48 h

molecule | TGI
O=C(NCCCCNC(=O)OCc1ccc2c(Cl)cc(Cl)c(O)c2n1)OCc1ccc2c(Cl)cc(Cl)c(O)c2n1 | > 100 µM
COc1cc(Br)cc2cc(C3=CSC4=NCCN34)c(=O)oc12 | 49.4 µM
OCCN1c2ccccc2Sc2ccccc21 | > 10 µM
Cn1ncc2c(Sc3ccc(Cl)cc3)ncnc21 | > 100 µM
CCOC(=O)NC(Nc1ncn(C(NC(=O)OCC)(C(F)(F)F)C(F)(F)F)n1)(C(F)(F)F)C(F)(F)F | > 100 µM
Cc1cccc2c(C(=O)O[C@H](C(N)=O)[C@]3(C)CO3)cccc12 | 2.88 µM
CCC(Cc1cnc2nc(N)nc(N)c2n1)c1ccc(C(=O)NC(CCC(=O)O)C(=O)O)cc1 (stereo not given) | > 100 µM
CCN(CC)CCC(=O)NC1c2ccccc2Oc2c(C)cccc21 (stereo not given) | > 100 µM
Nc1ncnc2c1ncn2C1OC(CSCc2ccc(Cl)cc2)C(O)C1O (stereo not given) | 36.7 µM
COc1ccc(/C=C/c2nnc(/C=C/c3ccc(OC)c(OC)c3)o2)cc1OC | 26 µM

---

- Test system: HOP-62 NSCLC
- assay text: NCI tumour cell line growth inhibition, 48 h
measured quantity: TGI

molecule | target of assay | result
CC(=O)C(C)CCOC1(C)OCCC1C (stereo unspecified) | HOP-62 NSCLC | > 100 µM
COC(OC)(c1ccccc1)C(Br)Br | HOP-62 NSCLC | > 100 µM
CCOC(=O)NC(Nc1ncn(C(NC(=O)OCC)(C(F)(F)F)C(F)(F)F)n1)(C(F)(F)F)C(F)(F)F | HOP-62 NSCLC | > 100 µM
CCOC(=O)/C=C(\C(=O)OCC)n1ccc(=O)n(Cc2cnnn2COCCOC(C)=O)c1=O | HOP-62 NSCLC | 38.5 µM
Cn1c(=O)c2nc(N3CCOCC3)cnc2n(C)c1=O | HOP-62 NSCLC | > 100 µM
C=CCCC1CCCNC1=S (stereo unspecified) | HOP-62 NSCLC | > 100 µM

---

- Test system: SF-268 CNS
- assay text: NCI tumour cell line growth inhibition, 48 h
Listing of entries alongside the reported TGI.

compound | TGI
O=C(CNc1cccc(Cl)c1)Nn1c(-c2ccccc2)nc2ccccc2c1=O | 22.9 µM
N#CCCN(CCCN(C(=O)N(c1ccccc1)c1ccccc1)c1ccccc1)C(=O)Nc1ccccc1 | > 100 µM
CC1(C)SC2C(NC(=O)C(C(=O)O)c3ccccc3)C(=O)N2C1C(=O)O (configuration not stated) | > 100 µM
COc1cccc2c1-c1ccccc1[C@H](Nc1ccccc1)[C@@]2(C)O | 21.1 µM
Cc1cc(-c2ncc(-c3cccnc3)cc2/C=C/c2ccccc2)cnc1-c1cccnc1 | > 100 µM
O=C1C=CC(=O)c2c(O)c(NCCCN3CCOCC3)c(Cl)c(O)c21 | 7.07 µM
NS(=O)(=O)N(c1cc(C(F)(F)F)cc(C(F)(F)F)c1)C1CCN(Cc2ccc(F)cc2)CC1 | 22.9 µM
CC(C)(C)c1ccc(C(=O)Nc2sc3c(c2C#N)CCC(=O)C3)cc1 | > 100 µM
Cc1c2ccccc2cc2nc3ccccc3n12 | > 10 µM
COc1cc(Nc2cnc3cc(N)ccc3n2)cc(OC)c1OC | > 100 µM
Cc1cccc2c(C(=O)O[C@H](C(N)=O)[C@]3(C)CO3)cccc12 | > 100 µM
CCN(Cc1ccncc1)c1ccc(CO)c(Cl)c1 | > 100 µM
CCCCNCC(O)c1cc2c(Cl)cc(Cl)cc2c2cc(C(F)(F)F)ccc12 (configuration not stated) | 3.71 µM
CCCCNc1nc2nc[nH]c2c(=O)[nH]1 | > 100 µM
Cc1c(-c2ccccc2)c(C#N)c2nnn(-c3ccc([N+](=O)[O-])cc3)c(=O)n12 | 45.3 µM
CCOC(=O)COc1ccc(OCC(=O)OCC)c2c1C(=O)CCCC2=O | > 100 µM
N#C/C(=C\c1cc(F)cc(F)c1)c1ccccn1 | 52.8 µM
COc1ccc2c(c1)C(=O)c1c-2n(CCCCl)c(=O)c2cc(OC)c(OC)cc12 | > 100 µM
COC(=O)/C(C#N)=C(\Nc1ccccc1)N1CCCC1 | > 100 µM
CC(=O)c1nc2ccccc2n1CCN1CCN(C)CC1 | > 100 µM
CCCCc1ccc(-n2c(C)c(COC(=O)NC)c(COC(=O)NC)c2C)cc1 | 20.3 µM
COc1cc2c(cc1OC)C1Cc3sccc3CN1CC2 (configuration not stated) | > 100 µM
